Test system: rat
Experiment description: Therapeutic index (LD50/HD50) in rat
Assay type: in vivo
I'd be grateful if you could share measured TI for these entries.
Give bare numbers.

Here are 3 compounds together with their reported answers.
Compound | Observation type | Readout number
CCOc1cc(CC(=O)OCC(F)(F)F)ccc1OCC(=O)N(CC)CC [Compound 5j] | TI | 13.3
CC(C)c1cccc(C(C)C)c1O [Propofol] | TI | 5.9
CCCOC(=O)Cc1ccc(OCC(=O)N(CC)CC)c(OC)c1 [Propanidid] | TI | 9.6

Enquiry: Please indicate TI recorded for CCCOC(=O)Cc1ccc(OCC(=O)N(CC)CC)c(OCC)c1 [AZD3043, reference compound]
Return: 10.1

###

Target: human GABAA receptor α1, β2 and γ2 (CHO-K1 cells) (Homo sapiens, UniProt P14867+P18507+P47870)
Construct: expressed in transfected cells; host or cells: CHO-K1 cells, stably transfected
Sequence (P14867 28-456): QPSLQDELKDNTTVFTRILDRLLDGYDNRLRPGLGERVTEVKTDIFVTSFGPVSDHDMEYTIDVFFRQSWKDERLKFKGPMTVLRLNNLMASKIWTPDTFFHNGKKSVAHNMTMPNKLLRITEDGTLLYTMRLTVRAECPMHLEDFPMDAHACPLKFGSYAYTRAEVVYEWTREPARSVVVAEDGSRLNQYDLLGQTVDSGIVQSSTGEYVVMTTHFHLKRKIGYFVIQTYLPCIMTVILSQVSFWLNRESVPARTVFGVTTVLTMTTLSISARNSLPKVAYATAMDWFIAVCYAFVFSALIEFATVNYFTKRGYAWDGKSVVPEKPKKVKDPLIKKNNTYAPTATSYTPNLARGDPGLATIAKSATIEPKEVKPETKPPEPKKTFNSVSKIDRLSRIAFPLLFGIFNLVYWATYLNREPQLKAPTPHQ
Sequence (P47870 25-512 limits assumed): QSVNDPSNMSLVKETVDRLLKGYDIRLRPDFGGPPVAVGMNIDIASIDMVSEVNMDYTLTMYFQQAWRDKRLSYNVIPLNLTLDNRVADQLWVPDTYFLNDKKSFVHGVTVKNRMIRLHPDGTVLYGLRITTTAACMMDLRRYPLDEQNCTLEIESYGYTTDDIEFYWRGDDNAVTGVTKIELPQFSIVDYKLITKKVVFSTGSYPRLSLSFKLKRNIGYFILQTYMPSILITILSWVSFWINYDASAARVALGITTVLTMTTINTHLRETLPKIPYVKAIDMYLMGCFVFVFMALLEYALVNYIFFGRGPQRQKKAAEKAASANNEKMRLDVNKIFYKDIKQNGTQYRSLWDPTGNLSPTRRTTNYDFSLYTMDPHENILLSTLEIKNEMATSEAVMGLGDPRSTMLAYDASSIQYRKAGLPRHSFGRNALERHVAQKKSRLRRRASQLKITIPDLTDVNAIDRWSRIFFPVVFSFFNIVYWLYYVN
Sequence (P18507 40-475): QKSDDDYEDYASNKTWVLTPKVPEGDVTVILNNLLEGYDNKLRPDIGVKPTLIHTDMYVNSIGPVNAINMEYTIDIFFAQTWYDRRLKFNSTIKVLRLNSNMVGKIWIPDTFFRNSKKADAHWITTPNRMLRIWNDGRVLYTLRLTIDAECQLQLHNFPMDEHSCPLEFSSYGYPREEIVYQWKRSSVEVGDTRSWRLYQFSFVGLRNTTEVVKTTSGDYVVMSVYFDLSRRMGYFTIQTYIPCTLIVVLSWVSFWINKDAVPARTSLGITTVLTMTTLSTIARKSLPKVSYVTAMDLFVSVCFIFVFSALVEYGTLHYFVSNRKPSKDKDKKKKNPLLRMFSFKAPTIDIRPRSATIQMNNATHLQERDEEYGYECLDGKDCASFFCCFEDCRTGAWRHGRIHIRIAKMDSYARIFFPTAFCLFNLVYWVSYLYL
Experiment description: cell-based
Observation type: EC50 (nM)
Numbers only, in nM.

Enquiry: Please indicate EC50 recorded for "CC(C)c1cccc(C(C)C)c1O"
Return: 2400

###

Experiment description: In vitro metabolic half-life in human whole blood
Format: in vitro ADME
Measurement conditions: male, Human (n = 4), 37°C, read-out: Mean t1/2 Value
Observation type: half-life at 200 µM

Compound | half-life at 200 µM
CCCOC(=O)Cc1ccc(OCC(=O)N(CC)CC)c(OCC)c1 [AZD3043, reference compound] | 28.6 min

Next:
Enquiry: Please indicate half-life at 200 µM recorded for CCOc1cc(CC(=O)OCC(F)(F)F)ccc1OCC(=O)N(CC)CC [Compound 5j]
Return: 25.5 min

###

I'd be grateful if you could share measured Onset time for these entries.
System: mice
Experiment description: animal or person
Type: in vivo
Measurement conditions: mice, IV, mean ± SD (n = 10)

Compound | Result
CCCOC(=O)Cc1ccc(OCC(=O)N(CC)CC)c(OC)c1 | 6.7 ± 0.5 s
CCN(CC)C(=O)COc1ccc(CC(=O)OCCC(F)(F)F)cc1OC | 7.5 ± 1.2 s

Your task in this section: give Onset time for each listed record.
1. CCOc1cc(CC(=O)OC(C)C(F)(F)F)ccc1OCC(=O)N(CC)CC (stereo not drawn)
2. CCCOC(=O)Cc1ccc(OCC(=O)N(CC)CC)c(OCC(F)(F)F)c1
3. CCOC(=O)Cc1ccc(OCC(=O)N(CC)CC)c(OC(F)(F)F)c1
4. CCCOC(=O)Cc1ccc(OCC(=O)N(CC)CC)c(OC(F)(F)F)c1
5. CCN(CC)C(=O)COc1ccc(CC(=O)OCC(F)(F)F)cc1OC
6. CCCOC(=O)Cc1ccc(OCC(=O)N(CC)CC)c(OCC)c1 [AZD3043, reference compound]
7. CCN(CC)C(=O)COc1ccc(CC(=O)OC(C)C(F)(F)F)cc1OC (stereo not drawn)

Return:
1. 7.3 ± 1.1 s
2. 23.4 ± 4.6 s
3. 35.1 ± 6.8 s
4. 32.4 ± 5.6 s
5. 6.2 ± 0.4 s
6. 5.6 ± 1.2 s
7. 7.2 ± 0.5 s

Your task in this section: give Onset time for each listed record.
1. CCOc1cc(CC(=O)OCCC(F)(F)F)ccc1OCC(=O)N(CC)CC
2. CCOC(=O)Cc1ccc(OCC(=O)N(CC)CC)c(OCC(F)(F)F)c1
3. CCOc1cc(CC(=O)OCC(F)(F)F)ccc1OCC(=O)N(CC)CC

Return:
1: 7.6 ± 0.9 s; 2: 25.2 ± 3.8 s; 3: 5.3 ± 1.2 s
